Data credit: the supplement of paper PMC8728848

TEST SYSTEM: Gal(b1-3)GlcNAc(b1-6)Gal(b1-4)GlcNAc
ASSAY SUMMARY: glycan array binding signal (z-score within array); higher = stronger binding
ASSAY CONDITIONS: glycan notation: IUPAC condensed, linker removed
Shown is part of a subset that was picked to be rich in the strongest signals.
VALUE TYPE: glycan array binding signal (z-score)
Reply briefly: the number, and no unit.

Examples with answers:
>>> endpoint_value("Gal 7 (Homo sapiens) (protein) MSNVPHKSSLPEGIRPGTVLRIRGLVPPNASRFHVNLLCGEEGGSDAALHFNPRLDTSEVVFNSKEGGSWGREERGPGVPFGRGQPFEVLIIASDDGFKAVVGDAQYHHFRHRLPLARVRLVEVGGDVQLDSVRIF")
-0.33
>>> endpoint_value("MGL2 (Mus musculus), Q8JZN1 (protein) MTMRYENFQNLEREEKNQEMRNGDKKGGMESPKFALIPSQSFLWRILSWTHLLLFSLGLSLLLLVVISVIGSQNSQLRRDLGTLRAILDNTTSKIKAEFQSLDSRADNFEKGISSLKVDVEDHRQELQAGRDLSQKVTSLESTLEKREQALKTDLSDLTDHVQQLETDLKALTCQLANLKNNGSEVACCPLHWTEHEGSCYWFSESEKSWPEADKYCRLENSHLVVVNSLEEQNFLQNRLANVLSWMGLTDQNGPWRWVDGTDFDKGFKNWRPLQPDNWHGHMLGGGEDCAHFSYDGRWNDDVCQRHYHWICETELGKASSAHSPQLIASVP")
-0.035

query: Dear colleague, please send me the reported glycan array binding signal (z-score) for AT3G09350(27) (Arabidopsis thaliana), Q84J81 (protein) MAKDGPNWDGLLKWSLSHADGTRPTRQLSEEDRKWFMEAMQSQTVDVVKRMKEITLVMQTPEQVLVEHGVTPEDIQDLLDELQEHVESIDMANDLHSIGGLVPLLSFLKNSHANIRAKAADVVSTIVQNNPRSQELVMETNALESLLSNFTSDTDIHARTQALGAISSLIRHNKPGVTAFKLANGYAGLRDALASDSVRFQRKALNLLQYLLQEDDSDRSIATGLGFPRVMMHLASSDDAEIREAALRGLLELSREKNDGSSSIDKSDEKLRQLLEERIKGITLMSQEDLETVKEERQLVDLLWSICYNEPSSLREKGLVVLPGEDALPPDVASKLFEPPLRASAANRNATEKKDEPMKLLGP when you can.
result: 3.05
